Test system: Yap1 mRNA
Test: Dose-dependent inhibition of human Yap1 in SNU-449 cells (Example 9, RTS36584)
Type: cell-based
Details: 125.0 nM, free uptake, approximately 48 hours
Strand notation (5' to 3'): a small letter for the sugar, then the base; units joined by * are phosphorothioate-linked, units joined directly phosphodiester-linked; [ ] holds rarer units or linkages, { } end groups; capitals alone tell only the bases. e = 2'-O-(2-methoxyethyl) (MOE); k = constrained ethyl (cEt); [5mC] = 5-methylcytosine; d = 2'-deoxy (DNA); m = 2'-O-methyl
Listed here are substances together with their documented % UTC (Yap1 mRNA).
Report the value in % UTC with no unit label.

Observe how each entry below is paired with its result.
1198500 (kA*kT*dT*dT*dA*dG*dG*dA*dT*dG*d[5mC]*eA*kT*eG*kG*eT; antisense) [compound 1198500] : 51
1198466 (kA*kG*dA*dG*dT*dA*dT*dG*dT*dG*dG*e[5mC]*kA*eA*kT*eA; antisense) [compound 1198466] : 44
958499 (ATTAGAGTATGTGGCA; 3-10-3 cEt gapmer, further chemistry not given here) [compound 958499] : 47
1198289 (kG*kG*kA*dA*dA*dT*dT*dG*dT*d[5mC]*dT*d[5mC]*kA*eT*kG*e[5mC]; antisense) [compound 1198289] : 41
1198484 (kG*k[5mC]*dA*d[5mC]*dT*dT*dT*dT*dA*d[5mC]*dA*eT*kT*eA*kG*eG) [compound 1198484] : 45
1198719 (kG*eG*kA*dA*dA*dT*dT*dG*dT*d[5mC]*dT*d[5mC]*eA*eT*kG*k[5mC]; antisense) [compound 1198719] : 30
1198287 (kA*kA*kA*dT*dT*dG*dT*d[5mC]*dT*d[5mC]*dA*dT*kG*e[5mC]*k[5mC]*eT; antisense) [compound 1198287] : 68
1197176 (kT*kG*kT*d[5mC]*dT*d[5mC]*dA*dT*dG*d[5mC]*d[5mC]*dT*dT*kA*kT*kA; antisense) [compound 1197176] : 37

Consider the substance 1197271 (kT*kT*kT*dA*mA*dA*dG*dT*dG*dT*dA*dT*dG*kT*k[5mC]*kA; antisense) [compound 1197271] and give its measured % UTC (Yap1 mRNA). 47

Same again, this time with 1198294 (kA*kG*kA*dG*dT*dA*dT*dG*dT*dG*dG*d[5mC]*kA*eA*kT*eA; antisense) [compound 1198294] 33

Same again, this time with 1198960 (kA*kA*dG*dT*dG*dT*dA*dT*dG*dT*d[5mC]*kA*dG*kA*dA*kG; antisense) [compound 1198960] 35

Same again, this time with 1198664 (kG*k[5mC]*dT*dT*dT*dG*dG*dA*dA*dG*dA*dT*k[5mC]*eT*kG*eA; antisense) [compound 1198664] 33

====

Test system: Yap1 mRNA
Test: Antisense inhibition of human Yap1 in A-431 cells by cEt gapmers, single dose (Example 4, RTS4814)
Assay type: cell-based
Conditions: Table 16; A-431 cells, 5,000 cells per well, free uptake, 2,000 nM, approximately 48 hours; RTS4814; normalized to RIBOGREEN; Yap1 mRNA relative to untreated control cells
Strand notation (5' to 3'): a small letter for the sugar, then the base; units joined by * are phosphorothioate-linked, units joined directly phosphodiester-linked; [ ] holds rarer units or linkages, { } end groups; capitals alone tell only the bases. k = constrained ethyl (cEt); [5mC] = 5-methylcytosine; d = 2'-deoxy (DNA)
Use MET when the recorded YAP1 (% UTC) is no lower than 60 % UTC; use NOT MET when it is lower.

1074370 (antisense kT*kT*kG*dA*dT*dA*dG*dT*dA*dT*d[5mC]*dA*d[5mC]*k[5mC]*kT*kG) [Compound 1074370] : NOT MET
1075586 (kT*kA*kT*dT*dA*dG*d[5mC]*dA*d[5mC]*d[5mC]*dT*dG*dG*kG*kT*kA; antisense) [Compound 1075586] : MET

// inclusive: YAP1 (% UTC) at least 60 % UTC? input: 1075810 (kG*kT*kA*dG*d[5mC]*dA*dA*dT*dA*dG*dA*dG*dT*kA*kA*k[5mC]; antisense) [Compound 1075810] NOT MET

Same again, this time with 1076450 (k[5mC]*kT*kT*dG*dA*dA*dT*dA*dG*d[5mC]*dT*dA*dT*kG*kT*kG; antisense) [Compound 1076450] NOT MET

Same again, this time with 1075906 (k[5mC]*k[5mC]*kT*d[5mC]*dA*dA*dT*dA*d[5mC]*dA*dG*dA*dT*kG*kA*kA; antisense) [Compound 1075906] NOT MET

Same again, this time with 1075330 (kG*kA*kG*dG*dG*dA*dA*dA*dA*d[5mC]*dT*dT*dT*kG*k[5mC]*kA; antisense) [Compound 1075330] MET
